molecular target: T1, human interleukin-2 (recombinant human IL-2, teceleukin) (human, UniProt P60568 21-153); test: SPR
T1 construct: also called hIL-2; rhIL-2
T1 sequence (P60568 21-153 limits assumed): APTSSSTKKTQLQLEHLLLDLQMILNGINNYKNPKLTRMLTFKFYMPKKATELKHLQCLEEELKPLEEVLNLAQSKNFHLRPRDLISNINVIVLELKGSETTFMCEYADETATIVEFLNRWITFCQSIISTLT
test.readout: Kd (nM)
Return type: number; implicit unit nM.

Q: Input UFKA-22-14 (antibody, human IgG1, V domains shown) VH: EVQLVESGGGLVKPGGSLRLSCAASGFSFSNYAMSWVRQAPGKGLEWVSLISGGGSYSYYPDSLKGRFTISRDNAKNSLYLQMNSLRAEDTAVYYCARHMGYNDYLAWFAYWGQGTLVTVSA VL: DIVMTQSPDSLAVSLGERATINCKSSQSLLNSANQKNYLAWYQQKPGQPPKLLIYFASTRESGVPDRFIGSGSGTDFTLTISSLQAEDVAVYYCQQYYSAPPWTFGGGTKVEIK , output reported Kd.
Ans: 4.3

Q: Note Kd for the binder shown: UFKA-22-09 (antibody, human IgG1, V domains shown) VH: EVQLVESGGGLVKPGGSLRLSCAASGFSFSNYAMSWVRQAPGKGLEWVSLISGGGSYSYYPDSLKGRFTISRDNAKNSLYLQMSSLRAEDTAVYYCARHMGYNDYLAWFAYWGQGTLVTVSS VL: DIVMTQSPDSLAVSLGERATINCKSSQSLLNSANQKNYLAWYQQKPGQPPKLLIYFASTRESGVPDRFIGSGSGTDFTLTISSLQAEDVAVYYCQQYYSAPPWTFGGGTKVEIK
Ans: 5.27
